Recorded values, source the RNAGym collection of RNA variant scans (doi:10.1073/pnas.2313332121).

B1: TPR t1 (parent)
chain: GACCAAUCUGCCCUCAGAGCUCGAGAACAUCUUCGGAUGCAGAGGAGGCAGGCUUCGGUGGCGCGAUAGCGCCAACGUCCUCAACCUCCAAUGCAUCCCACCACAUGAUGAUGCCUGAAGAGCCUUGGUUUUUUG

# Variants of: B1
# PROCEDURE TEXT: polymerase ribozyme fitness, log enrichment relative to wild type (log ratio); higher = more active; in vitro selection for triplet polymerase activity
Short version: polymerase ribozyme fitness (log ratio) at least -2 is Satisfied, less is Not satisfied.

CHANGE: A5G C8G G47A G69U C80G
QUALITATIVE LABEL: Not satisfied
--
CHANGE: C56G C88U
QUALITATIVE LABEL: Satisfied
--
CHANGE: C101G C102A U130C
QUALITATIVE LABEL: Not satisfied
--
CHANGE: C8G G10A C12U G35A A66C C72G A121U G122C U130C
QUALITATIVE LABEL: Not satisfied
--
CHANGE: C56U C72A G77A C97A
QUALITATIVE LABEL: Not satisfied
--
CHANGE: A6U C40G G42C C76A C94U U112C G122A
QUALITATIVE LABEL: Not satisfied
--
CHANGE: C86U G110A A111C
QUALITATIVE LABEL: Not satisfied
--
CHANGE: C13G G47C
QUALITATIVE LABEL: Not satisfied

-- ask Form field: polymerase ribozyme fitness (log ratio) at least -2? Entry: C72A U109C
-- reply Not satisfied

-- ask Continue with U7C G44A
-- reply Satisfied

-- ask What do you get for G113C G128U ?
-- reply Not satisfied

-- ask Try this variant too: C28A G61A G93A C123A
-- reply Not satisfied

-- ask Item: G47A G127C
-- reply Not satisfied

-- ask Lookup G51A U112A
-- reply Satisfied

-- ask Can you check A90C U106A A108G next?
-- reply Not satisfied

-- ask Please give the result for A18U G36A A50G too.
-- reply Not satisfied
